Listed below: pIC50 values for each entry.
Tested on: MKN-45
experiment.description: Cell viability / antiproliferative assay (WST-8), MKN-45;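 note: MKN-45 is a human gastric cancer line overexpressing c-MET, growth inhibition read as WST-8 formazan absorbance at 450 nm after 2 h dye incubation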
test.context: read-out: MKN-45 IC50; MKN-45 cells, 72 hours, WST-8; Table 1
pIC50: −log10 of the molar value.
measured.metric: pIC50

compound="Cn1cc(-c2cnc3c(nnn3C[C@@H]3CN(c4ncc(-c5ccc(CN6CCN(C(=O)CCCCCCNc7ccc8c(=O)n(C9CCC(=O)NC9=O)ncc8c7)CC6)cc5)cn4)CCO3)n2)cn1 (some centres unmarked)" value="> 7.00"
compound="Cn1cc(-c2cnc3c(nnn3C[C@@H]3CN(c4ncc(-c5ccc(CN6CCN(C(=O)COCCOCCOCCNc7cccc8cnn(C9CCC(=O)NC9=O)c(=O)c78)CC6)cc5)cn4)CCO3)n2)cn1 (some centres unmarked)" value="> 7.00"
compound="Cn1cc(-c2cnc3c(nnn3C[C@@H]3CN(c4ncc(-c5ccc(CN6CCN(C(=O)CCCCCNc7cccc8cnn(C9CCC(=O)NC9=O)c(=O)c78)CC6)cc5)cn4)CCO3)n2)cn1 (some centres unmarked)" value="> 7.00"
compound="Cn1cc(-c2cnc3c(nnn3C[C@@H]3CN(c4ncc(-c5ccc(CN6CCN(C(=O)COCCOCCOCCOCCOCCNc7cccc8cnn(C9CCC(=O)NC9=O)c(=O)c78)CC6)cc5)cn4)CCO3)n2)cn1 (some centres unmarked)" value="6.00 to 7.00"
compound="Cn1cc(-c2cnc3c(nnn3C[C@@H]3CN(c4ncc(-c5ccc(CN6CCN(C(=O)CCCCNc7cccc8cnn(C9CCC(=O)NC9=O)c(=O)c78)CC6)cc5)cn4)CCO3)n2)cn1 (some centres unmarked)" value="> 7.00"

* * *

Listed below: DC50 values for each entry.
tested.system: UniProtKB P08581
experiment.description: c-MET protein degradation (Simple Western), MKN-45
Assay type: cell-based
Parameters: assess the resolution of the compound of the present invention for c-MET expressed in cells; endogenous in cells; host or cells: MKN45 (human gastric cancer)
test.context: c-MET overexpressing gastric cancer cell line MKN-45, treated 24 hours; Table 2
measured.metric: DC50

molecule="Cc1nn(C2CCC(=O)NC2=O)c(=O)c2c(NCC(=O)N3CCC(COc4cnc(-c5cccc(Cn6nc(-c7cccc(C#N)c7)ccc6=O)c5)nc4)CC3)cccc12 (stereo not drawn) [ICT-0000981]" tested_system="UniProtKB P08581" measured_metric=DC50 value="> 1000 nM"
molecule="N#Cc1cccc(-c2ccc(=O)n(Cc3cccc(-c4ncc(OCC5CCN(C(=O)CCCCCCNc6ccc7c(=O)n(C8CCC(=O)NC8=O)ncc7c6)CC5)cn4)c3)n2)c1 (stereo not drawn) [ICT-0000985]" tested_system="UniProtKB P08581" measured_metric=DC50 value="< 100 nM"
molecule="Cc1nn(C2CCC(=O)NC2=O)c(=O)c2ccc(N3CCC(CN4CCN(C(=O)CN5CCC(COc6cnc(-c7cccc(Cn8nc(-c9cccc(C#N)c9)ccc8=O)c7)nc6)CC5)CC4)CC3)cc12 (stereo not drawn) [ICT-0001236]" tested_system="UniProtKB P08581" measured_metric=DC50 value="< 100 nM"
molecule="N#Cc1cccc(-c2ccc(=O)n(Cc3cccc(-c4ncc(OCC5CCN(C(=O)CCCCN6CCN(c7ccc8c(=O)n(C9CCC(=O)NC9=O)ncc8c7)CC6)CC5)cn4)c3)n2)c1 (stereo not drawn) [ICT-0001201]" tested_system="UniProtKB P08581" measured_metric=DC50 value="< 100 nM"
molecule="Cc1nn(C2CCC(=O)NC2=O)c(=O)c2cc(N3CCC(N4CCN(CC(=O)N5CCC(COc6cnc(-c7cccc(Cn8nc(-c9cccc(C#N)c9)ccc8=O)c7)nc6)CC5)CC4)CC3)ccc12 (stereo not drawn) [ICT-0001270]" tested_system="UniProtKB P08581" measured_metric=DC50 value="< 100 nM"
molecule="Cc1nn(C2CCC(=O)NC2=O)c(=O)c2ccc(NCCOCCOCCOCCOCCC(=O)N3CCC(COc4cnc(-c5cccc(Cn6nc(-c7cccc(C#N)c7)ccc6=O)c5)nc4)CC3)cc12 (stereo not drawn) [ICT-0001091]" tested_system="UniProtKB P08581" measured_metric=DC50 value="< 100 nM"
molecule="N#Cc1cccc(-c2ccc(=O)n(Cc3cccc(-c4ncc(OCC5CCN(C(=O)COCCOCCOCCOCCNc6ccc7c(=O)n(C8CCC(=O)NC8=O)ncc7c6)CC5)cn4)c3)n2)c1 (stereo not drawn) [ICT-0000988]" tested_system="UniProtKB P08581" measured_metric=DC50 value="< 100 nM"
molecule="Cc1nn(C2CCC(=O)NC2=O)c(=O)c2cc(N3CCN(CCCCC(=O)N4CCC(COc5cnc(-c6cccc(Cn7nc(-c8cccc(C#N)c8)ccc7=O)c6)nc5)CC4)CC3)ccc12 (stereo not drawn) [ICT-0001217]" tested_system="UniProtKB P08581" measured_metric=DC50 value="< 100 nM"
molecule="Cc1nn(C2CCC(=O)NC2=O)c(=O)c2cc(N3CCN(CC4CCN(C(=O)CN5CCC(COc6cnc(-c7cccc(Cn8nc(-c9cccc(C#N)c9)ccc8=O)c7)nc6)CC5)CC4)CC3)ccc12 (stereo not drawn) [ICT-0001195]" tested_system="UniProtKB P08581" measured_metric=DC50 value="< 100 nM"
molecule="N#Cc1cccc(-c2ccc(=O)n(Cc3cccc(-c4ncc(OCC5CCN(C(=O)COCCOCCOCCNc6ccc7c(=O)n(C8CCC(=O)NC8=O)ncc7c6)CC5)cn4)c3)n2)c1 (stereo not drawn) [ICT-0000987]" tested_system="UniProtKB P08581" measured_metric=DC50 value="100 to 1000 nM"
molecule="Cc1nn(C2CCC(=O)NC2=O)c(=O)c2ccc(N3CCN(C(=O)CN4CCC(COc5cnc(-c6cccc(Cn7nc(-c8cccc(C#N)c8)ccc7=O)c6)nc5)CC4)CC3)cc12 (stereo not drawn) [ICT-0001177]" tested_system="UniProtKB P08581" measured_metric=DC50 value="< 100 nM"
molecule="Cc1nn(C2CCC(=O)NC2=O)c(=O)c2ccc(N3CCN(CCCCC(=O)N4CCC(COc5cnc(-c6cccc(Cn7nc(-c8cccc(C#N)c8)ccc7=O)c6)nc5)CC4)CC3)cc12 (stereo not drawn) [ICT-0001176]" tested_system="UniProtKB P08581" measured_metric=DC50 value="< 100 nM"

* * *

tested.system: c-MET (Homo sapiens)
Sequence (P08581 25-1390): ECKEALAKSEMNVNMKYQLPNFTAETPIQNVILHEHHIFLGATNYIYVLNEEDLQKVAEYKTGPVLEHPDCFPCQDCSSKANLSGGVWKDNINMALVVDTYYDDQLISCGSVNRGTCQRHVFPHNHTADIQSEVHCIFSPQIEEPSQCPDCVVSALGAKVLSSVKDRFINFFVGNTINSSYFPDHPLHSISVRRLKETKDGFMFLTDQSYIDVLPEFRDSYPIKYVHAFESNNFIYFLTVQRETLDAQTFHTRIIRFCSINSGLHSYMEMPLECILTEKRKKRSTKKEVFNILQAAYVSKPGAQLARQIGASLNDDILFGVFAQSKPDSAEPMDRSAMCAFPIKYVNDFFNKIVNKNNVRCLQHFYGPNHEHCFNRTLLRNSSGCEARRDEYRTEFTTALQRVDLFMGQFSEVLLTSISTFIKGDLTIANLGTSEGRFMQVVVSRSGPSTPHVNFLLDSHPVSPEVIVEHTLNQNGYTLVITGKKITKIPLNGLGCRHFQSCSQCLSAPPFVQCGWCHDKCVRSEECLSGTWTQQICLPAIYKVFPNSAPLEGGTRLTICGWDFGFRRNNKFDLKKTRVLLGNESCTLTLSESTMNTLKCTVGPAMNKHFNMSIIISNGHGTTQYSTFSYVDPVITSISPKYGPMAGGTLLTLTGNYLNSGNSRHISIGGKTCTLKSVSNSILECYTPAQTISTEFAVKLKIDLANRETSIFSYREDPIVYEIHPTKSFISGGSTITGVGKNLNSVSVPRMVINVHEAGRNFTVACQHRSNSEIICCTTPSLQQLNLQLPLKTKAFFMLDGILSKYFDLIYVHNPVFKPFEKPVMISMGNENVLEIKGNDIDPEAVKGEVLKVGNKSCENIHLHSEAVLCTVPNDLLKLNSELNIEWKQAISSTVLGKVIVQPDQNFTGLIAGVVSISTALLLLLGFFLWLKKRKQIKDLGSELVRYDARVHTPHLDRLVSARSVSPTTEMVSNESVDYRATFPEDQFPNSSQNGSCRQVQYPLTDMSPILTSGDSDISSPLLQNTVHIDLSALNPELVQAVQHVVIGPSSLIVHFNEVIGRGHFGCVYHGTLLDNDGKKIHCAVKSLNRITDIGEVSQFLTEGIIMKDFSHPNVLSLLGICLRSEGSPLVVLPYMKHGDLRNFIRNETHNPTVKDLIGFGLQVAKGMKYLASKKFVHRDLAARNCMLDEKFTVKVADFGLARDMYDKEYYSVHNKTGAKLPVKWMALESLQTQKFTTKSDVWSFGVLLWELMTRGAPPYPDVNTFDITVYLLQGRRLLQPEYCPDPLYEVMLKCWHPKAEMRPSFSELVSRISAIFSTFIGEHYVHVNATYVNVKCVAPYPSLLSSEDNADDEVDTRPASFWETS
experiment.description: c-MET protein degradation (Simple Western), EBC-1
Type: cell-based
Parameters: assess the resolution of the compound of the present invention for c-MET expressed in cells; endogenous in cells; host or cells: EBC-1 (human lung cancer)
test.context: c-MET overexpressing lung cancer cell line EBC-1, treated 48 hours; Table 2
measured.metric: DC50

compound="N#Cc1cccc(-c2ccc(=O)n(Cc3cccc(-c4ncc(OCC5CCN(CC(=O)N6CC(N7CCN(c8ccc9c(=O)n(C%10CCC(=O)NC%10=O)ncc9c8)CC7)C6)CC5)cn4)c3)n2)c1 (stereo not drawn) [ICT-0001232]" value="< 100 nM"
compound="Cc1nn(C2CCC(=O)NC2=O)c(=O)c2ccc(N3CCN(c4ccc(NC(=O)CN5CCC(COc6cnc(-c7cccc(Cn8nc(-c9cccc(C#N)c9)ccc8=O)c7)nc6)CC5)cc4)CC3)cc12 (stereo not drawn) [ICT-0001207]" value="< 100 nM"
compound="N#Cc1cccc(-c2ccc(=O)n(Cc3cccc(-c4ncc(N5CCN(CC6CCN(c7ccc(NC8CCC(=O)NC8=O)cc7F)CC6)CC5)cn4)c3)n2)c1 (stereo not drawn) [ICT-0001402]" value="< 100 nM"

* * *

Listed below: DC50 values for each entry.
tested.system: c-MET (Homo sapiens)
experiment.description: c-MET protein degradation (Simple Western), MKN-45
Type: cell-based
Parameters: assess the resolution of the compound of the present invention for c-MET expressed in cells; endogenous in cells; host or cells: MKN45 (human gastric cancer)
test.context: c-MET overexpressing gastric cancer cell line MKN-45, treated 24 hours; Table 1
measured.metric: DC50

compound="Cn1cc(-c2cnc3c(nnn3C[C@@H]3CN(c4ncc(-c5ccc(CN6CCN(C(=O)CCCCNc7ccc8c(=O)n(C9CCC(=O)NC9=O)ncc8c7)CC6)cc5)cn4)CCO3)n2)cn1 (stereo partly shown)" tested_system="c-MET (Homo sapiens)" value="< 100 nM"
compound="Cn1cc(-c2cnc3c(nnn3C[C@@H]3CN(c4ncc(-c5ccc(CN6CCN(C(=O)CCCCCCNc7cccc8cnn(C9CCC(=O)NC9=O)c(=O)c78)CC6)cc5)cn4)CCO3)n2)cn1 (stereo partly shown)" tested_system="c-MET (Homo sapiens)" value="100 to 1000 nM"
compound="Cn1cc(-c2cnc3c(nnn3C[C@@H]3CN(c4ncc(-c5ccc(CN6CCN(C(=O)COCCOCCOCCNc7ccc8c(=O)n(C9CCC(=O)NC9=O)ncc8c7)CC6)cc5)cn4)CCO3)n2)cn1 (stereo partly shown)" tested_system="c-MET (Homo sapiens)" value="> 1000 nM"
compound="Cn1cc(-c2cnc3c(nnn3C[C@@H]3CN(c4ncc(-c5ccc(CN6CCN(C(=O)COCCOCCOCCOCCNc7ccc8c(=O)n(C9CCC(=O)NC9=O)ncc8c7)CC6)cc5)cn4)CCO3)n2)cn1 (stereo partly shown)" tested_system="c-MET (Homo sapiens)" value="> 1000 nM"
compound="Cn1cc(-c2cnc3c(nnn3C[C@@H]3CN(c4ncc(-c5ccc(CN6CCN(C(=O)CCCCCCNc7ccc8c(=O)n(C9CCC(=O)NC9=O)ncc8c7)CC6)cc5)cn4)CCO3)n2)cn1 (stereo partly shown)" tested_system="c-MET (Homo sapiens)" value="< 100 nM"
compound="Cn1cc(-c2cnc3c(nnn3C[C@@H]3CN(c4ncc(-c5ccc(CN6CCN(C(=O)CCCNc7ccc8c(=O)n(C9CCC(=O)NC9=O)ncc8c7)CC6)cc5)cn4)CCO3)n2)cn1 (stereo partly shown)" tested_system="c-MET (Homo sapiens)" value="< 100 nM"
compound="Cn1cc(-c2cnc3c(nnn3C[C@@H]3CN(c4ncc(-c5ccc(CN6CCN(C(=O)CN7CCN(c8ccc9c(=O)n(C%10CCC(=O)NC%10=O)ncc9c8)CC7)CC6)cc5)cn4)CCO3)n2)cn1 (stereo partly shown)" tested_system="c-MET (Homo sapiens)" value="< 100 nM"
compound="Cn1cc(-c2cnc3c(nnn3C[C@@H]3CN(c4ncc(-c5ccc(CN6CCN(C(=O)CCCNc7cccc8cnn(C9CCC(=O)NC9=O)c(=O)c78)CC6)cc5)cn4)CCO3)n2)cn1 (stereo partly shown)" tested_system="c-MET (Homo sapiens)" value="< 100 nM"
compound="Cn1cc(-c2cnc3c(nnn3C[C@@H]3CN(c4ncc(-c5ccc(CN6CCN(C(=O)CCCCCNc7ccc8c(=O)n(C9CCC(=O)NC9=O)ncc8c7)CC6)cc5)cn4)CCO3)n2)cn1 (stereo partly shown)" tested_system="c-MET (Homo sapiens)" value="< 100 nM"
compound="Cn1cc(-c2cnc3c(nnn3C[C@@H]3CN(c4ncc(-c5ccc(CN6CCN(C(=O)CCCCNc7cccc8cnn(C9CCC(=O)NC9=O)c(=O)c78)CC6)cc5)cn4)CCO3)n2)cn1 (stereo partly shown)" tested_system="c-MET (Homo sapiens)" value="< 100 nM"

Data credit: patent EP4624466A1
